# subject_of_test: HIV-1 protease (Human immunodeficiency virus type 1 group M subtype B)
# assay_procedure: biochemical
# measurement_parameters: read-out: Protease % Inhib
Give measured inhibition at 10 µM for each item. Keep answers brief.
Write the number in % without appending the unit.

IN: GET inhibition at 10 µM where system = HIV-1 protease (Human immunodeficiency virus type 1 group M subtype B) and item = O=c1oc2c(c(O)c1C(c1cccc(CS(=O)(=O)c3ccccc3)c1)C1CC1)CCCCCC2 (centres unmarked)
OUT: 129

IN: GET inhibition at 10 µM where system = HIV-1 protease (Human immunodeficiency virus type 1 group M subtype B) and item = O=c1oc(C(CC2CC2)CC2CC2)cc(O)c1C(c1cccc(NS(=O)(=O)c2ccc(F)cc2)c1)C1CC1 (centres unmarked)
OUT: 109

IN: GET inhibition at 10 µM where system = HIV-1 protease (Human immunodeficiency virus type 1 group M subtype B) and item = CCCC1(CCc2ccccc2)CC(O)=C(C(CC)c2cccc(NS(=O)(=O)c3ccc(F)cc3)c2)C(=O)O1 (centres unmarked) [Example 93A]
OUT: 109

IN: GET inhibition at 10 µM where system = HIV-1 protease (Human immunodeficiency virus type 1 group M subtype B) and item = COCCOCCOCCOc1ccc2c(O)c(C(c3cccc(NS(=O)(=O)c4cn(C)cn4)c3)C3CC3)c(=O)oc2c1 (centres unmarked)
OUT: 116

IN: GET inhibition at 10 µM where system = HIV-1 protease (Human immunodeficiency virus type 1 group M subtype B) and item = CCCC1(CCc2ccccc2)CC(O)=C(C(CC)c2cccc(NS(=O)(=O)c3ccc(C#N)cn3)c2)C(=O)O1 (centres unmarked)
OUT: 96.2
